meta.source: patent US4748175A

experiment: Acute toxicity (LD50) in rats; conditions: rat, in vivo, po, Male
Counter-ions that a name gives are not always drawn.
REPORTED_PROPERTY: LD50 (mg/kg)
# output: bare number, implied unit mg/kg

Form field: reported LD50 of Cc1nc(NCCN2CCOCC2)c2c(n1)NC(=O)CO2 [Example 22, dihydrochloride]
830

* * *

assay: Acute toxicity (LD50) in mice; conditions: mouse, in vivo, ip, Male
Counter-ions that a name gives are not always drawn.
REPORTED_PROPERTY: LD50 (mg/kg)
Provide the reading as a plain figure in mg/kg.

// LD50 lookup, key: Cc1nc(NCCN2CCOCC2)c2c(n1)NC(=O)CO2 [Example 22, dihydrochloride]
572
